test system: HeLa cells; test: Flow cytometry analysis of apoptosis and cell cycle arrest (PI staining); format: cell-based, human; conditions: 24 h, FACS
endpoint: Cell cycle arrest phase

| molecule | recorded.measurement |
| --- | --- |
| CC(C)=CCc1c(O)c(O)c2oc3c(CC=C(C)C)c(O)ccc3c(=O)c2c1O [Compound 1] | at the G2/M phase |
| CC1(C)C=Cc2c(cc3oc4c(O)c(O)ccc4c(=O)c3c2O)O1 [Compound 16, jacareubin] | at the G2/M phase |

* * *

test: CCK-8 cytotoxicity assay, immortalized HL7702 normal liver cells; type: cell-based; details: immortalized HL-7702 normal liver cells; CCK-8, 72 h treatment; normal human liver cells, selectivity
endpoint: IC50 at 72 h (µM)
Kindly provide the numeric value in µM only, without the unit symbol.

The examples below pair each entry with its known result.
| compound | endpoint | recorded.measurement |
| --- | --- | --- |
| CC1(C)C=Cc2c(cc3oc4c(O)c(O)ccc4c(=O)c3c2O)O1 [Compound 16, jacareubin] | IC50 at 72 h | 5.5 |
| CC(C)=CCc1c(O)c(O)c2oc3c(CC=C(C)C)c(O)ccc3c(=O)c2c1O [Compound 1] | IC50 at 72 h | 11 |
| CC(C)=CCc1c2c(c3oc4c(O)c(O)ccc4c(=O)c3c1O)C=CC(C)(C)O2 [Compound 5] | IC50 at 72 h | 10.5 |

Give IC50 at 72 h for the following compound: C=C(C)C(O)C[C@H](C[C@@]12C[C@@H](CC=C(C)C)C(C)(C)[C@@](CC=C(C)C)(C(=O)C(C(=O)c3ccc(O)c(O)c3)=C1O)C2=O)C(=C)C (stereo partly shown) [Compound 8, garcimultiflorone E]
7.34

Provide one value: measured IC50 at 72 h of C=C(C)C(CC=C(C)C)C[C@@]12C[C@@H](CC=C(C)C)C(C)(C)[C@@](CC=C(C)C)(C1=O)c1oc3cc(O)c(O)cc3c(=O)c1C2=O (stereo partly shown) [Compound 15, symphonone H]
3.96

Please give measured IC50 at 72 h of the following entry: COc1cc([C@@H]2c3cc4c(cc3[C@@H](O[C@@H]3O[C@@H]5CO[C@@H](C)O[C@H]5[C@H](O)[C@H]3O)[C@H]3COC(=O)[C@H]23)OCO4)cc(OC)c1O [Etoposide, reference compound]
1.42

Using the record for CC(C)=CCc1c2c(c(O)c3c(=O)c4ccc(O)c(O)c4oc13)C=CC(C)(C)O2 [Compound 17, xanthone V1] , state its measured IC50 at 72 h.
9.5
